For each of the compounds below, state its pKd.
assay-target: hCK2α (Homo sapiens)
Construct: made in house
Sequence (P68400 whole entry): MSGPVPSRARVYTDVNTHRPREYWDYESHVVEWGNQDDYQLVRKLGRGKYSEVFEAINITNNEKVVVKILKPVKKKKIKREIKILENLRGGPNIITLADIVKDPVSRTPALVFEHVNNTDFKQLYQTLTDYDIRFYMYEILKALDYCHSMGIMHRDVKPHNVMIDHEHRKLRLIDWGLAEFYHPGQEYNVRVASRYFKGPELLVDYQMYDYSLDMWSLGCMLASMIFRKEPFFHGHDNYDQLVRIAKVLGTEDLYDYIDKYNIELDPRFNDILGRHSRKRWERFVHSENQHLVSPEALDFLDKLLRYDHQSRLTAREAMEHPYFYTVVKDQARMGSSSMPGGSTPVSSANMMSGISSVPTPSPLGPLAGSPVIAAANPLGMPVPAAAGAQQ
assay-text: Isothermal titration calorimetry (NanoITC)
Format: binding
cond: 15 °C, pH 8
In textbook form, pKd equals minus log to base ten of the concentration in mol/L.

Query string: What value of measured pKd is listed for Brc1cc2nn[nH]c2cc1Br ?
Result string: 7.23

Query string: // query pKd value for entry Brc1cc2[nH]nnc2c(Br)c1Br
Result string: 7.19

###

assay-target: hCK2α (Homo sapiens)
Construct: made in house
assay-text: Fluorescence-monitored thermal denaturation (nanoDSF) of hCK2α complexes
Format: binding
cond: hCK2α in complex with ligand, protein 2.5 μM, ligand 25 μM
Hi there, I'd appreciate the recorded Tm (°C) at pH 7.5 for every entry that follows.
Report the value in °C with no unit label.

Query string: Given the compound Brc1ccc(Br)c2n[nH]nc12 , what is its reported Tm (°C) at pH 7.5?
Result string: 47.15

Query string: Suppose we examine the compound Brc1cccc2n[nH]nc12 ; what Tm (°C) at pH 7.5 value has been reported?
Result string: 45.92

Query string: Which Tm (°C) at pH 7.5 value is on record for Brc1ccc2n[nH]nc2c1 ?
Result string: 47.17

Query string: Look up Tm (°C) at pH 7.5 for this compound: Brc1cc2nn[nH]c2cc1Br
Result string: 52.96

Query string: # Tm (°C) at pH 7.5 lookup, item Brc1cc2[nH]nnc2c(Br)c1Br
Result string: 53.84

Query string: # Tm (°C) at pH 7.5 lookup, item Brc1ccc2[nH]nnc2c1Br
Result string: 49.55

Query string: Tell me the measured Tm (°C) at pH 7.5 of Brc1cc(Br)c2[nH]nnc2c1Br , please.
Result string: 49.81

Query string: Entry under review: Brc1cc(Br)c2n[nH]nc2c1 . Reported Tm (°C) at pH 7.5?
Result string: 49.21

Entry source: paper PMC8041304
